system_name: 17β-hydroxysteroid dehydrogenase type 2 (17β-HSD type 2) (Homo sapiens, UniProt P37059)
Construct: expressed in transfected cells; host or cells: MCF-7
Sequence (P37059 whole entry): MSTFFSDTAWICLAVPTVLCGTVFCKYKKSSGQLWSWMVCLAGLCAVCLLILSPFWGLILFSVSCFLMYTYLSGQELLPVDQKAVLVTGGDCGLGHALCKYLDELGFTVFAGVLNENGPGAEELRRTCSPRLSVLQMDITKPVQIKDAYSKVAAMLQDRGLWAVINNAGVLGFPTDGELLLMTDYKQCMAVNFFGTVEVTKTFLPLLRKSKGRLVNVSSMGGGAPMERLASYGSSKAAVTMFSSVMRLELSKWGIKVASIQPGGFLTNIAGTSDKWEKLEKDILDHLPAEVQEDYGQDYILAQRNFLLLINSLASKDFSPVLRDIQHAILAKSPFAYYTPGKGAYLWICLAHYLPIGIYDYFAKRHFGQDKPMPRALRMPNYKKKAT
protocol_text: Inhibition of 17β-HSD type 2 in MCF-7 cells stably expressing the isoenzyme (tritium labeled estradiol conversion, HPLC)
Type: cell-based
settings: MCF7; 10 μM test compound; MCF-7 cells expressing 17β-HSD type 2; 2 nM tritium labeled estradiol; read-out: % Inhibition HSD2 10 μM
readout_kind: inhibition at 10 µM (%)

- CCC(C)Cn1c(-c2cc(OC)c(OC)c(OC)c2)nc2sc3c(c2c1=O)CCC(Br)C3=O (centres unmarked) [No. 127]: 5.7
- COCc1nc2sc3c(c2c(=O)n1Cc1ccccc1)CCC(C=O)=C3Cl [No. 34]: 25.3

1. COc1cc(-c2nc3sc4c(Oc5ccccc5)c(C=O)ccc4c3c(=O)n2Cc2ccccc2)cc(OC)c1OC [No. 5]
2. COc1cccc(-c2nc3sc4c(c3c(=O)n2Cc2ccccc2)CCC(Br)(Br)C4=O)c1 [No. 81]
3. COc1ccc(-c2nc3sc4c(c3c(=O)n2Cc2ccccc2)CCC(Br)C4=O)cc1 (centres unmarked) [No. 146]
Arrange these molecules by their inhibition at 10 µM, starting with the largest number. Return value: ordered labels per request.
2, 1, 3
(2: 35.6%, 1: 17%, 3: 5.1%)

P. COc1cc(-c2nc3sc4c(c3c(=O)n2Cc2ccccc2)CCC(C=O)=C4Oc2ccccc2)cc(OC)c1OC [No. 4]
Q. COC(=O)Cc1nc2sc3c(c2c(=O)n1Cc1ccccc1)CCCC3 [No. 26]
Two entries are listed, P and Q . Which one carries the higher inhibition at 10 µM? Bench note: the answer is the label of the chosen record.
Q
(Q: 32.3%, P: 20.1%)

a. CCCCn1c(-c2cc(OC)c(OC)c(OC)c2)nc2sc3c(c2c1=O)CCC(Br)C3=O (centres unmarked) [No. 87]
b. O=C(OCCn1c(-c2cccs2)nc2sc3c(O)cccc3c2c1=O)c1cccs1 [No. 73]
Two entries are listed, a and b . Which one carries the higher inhibition at 10 µM? Bench note: the answer is the label of the chosen record.
b

I. COCCn1c(-c2cccs2)nc2sc3c(c2c1=O)CCCC3=O [No. 75]
II. COc1cc(-c2nc3sc4c(c3c(=O)n2Cc2ccccc2)C(C)CCC4=O)cc(OC)c1OC (centres unmarked) [No. 684]
III. COc1cc(-c2nc3sc4c(OC(C)=O)cccc4c3c(=O)n2Cc2ccccc2)cc(OC)c1OC [No. 54]
IV. CCC(C)Cn1c(-c2cc(OC)c(OC)c(OC)c2Br)nc2sc3c(c2c1=O)CCC(Br)(Br)C3=O (centres unmarked) [No. 128]
With regard to inhibition at 10 µM, arrange the entries in ascending order, please. Return value: ordered labels per request.
IV, II, I, III
(IV: 0%, II: 11%, I: 23.1%, III: 59.8%)
